B1: Twister Ribozyme (parent)
chain: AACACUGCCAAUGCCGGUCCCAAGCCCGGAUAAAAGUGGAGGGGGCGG

variants of: B1; assay: self-cleavage, relative activity (ratio to wild type); higher = more cleavage; co-transcriptional
Note: every record was labeled by where its self-cleavage sits among low bin: < 0.1; mid bin: ≥ 0.1 and < 0.4; high bin: ≥ 0.4

mutation-list	class-assignment
A10U A30C	high bin
U37G G43U	mid bin
C3A A4U	low bin
A10G G39C	mid bin
C26A G29A	mid bin
G17A C19U	mid bin
A1C G39C	mid bin
U6A A40C	mid bin
A1G U6G	low bin
A32G G42U	mid bin
G28C G38A	high bin
A32C U37C	high bin
G16C A23U	low bin
G28A G45C	mid bin
A35C G45C	high bin
A22U A23C	low bin
A10G G41A	high bin
G41C G44C	mid bin
G28A A30U	high bin
A11G G24U	mid bin
A11U G41C	mid bin
A11C A30U	high bin
